Target system: Wee1 kinase domain (Homo sapiens)
Construct: Wee1 kinase domain was purchased from Carna (catalog #05-177); purchased Carna 05-177
Sequence (P30291 299-569 limits assumed): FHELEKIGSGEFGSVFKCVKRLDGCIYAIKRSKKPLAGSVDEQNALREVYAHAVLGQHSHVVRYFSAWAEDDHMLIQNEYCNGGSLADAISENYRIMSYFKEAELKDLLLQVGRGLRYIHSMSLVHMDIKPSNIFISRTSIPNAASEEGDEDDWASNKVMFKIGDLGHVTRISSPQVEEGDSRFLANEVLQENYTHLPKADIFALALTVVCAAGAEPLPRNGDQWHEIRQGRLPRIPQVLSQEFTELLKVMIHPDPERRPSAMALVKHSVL
Assay method text: Wee1 Kinase Biochemical Assay (ADP-Glo)
Test conditions: Wee1 kinase domain, 15 uM ATP, ADP-Glo
Measured attribute: IC50

Some entries whose results are on file:
CNCc1cccc(N2c3nc(Nc4ccc([C@@H]5CCOC5)cc4)ncc3[C@@]3(C)COC(C)(C)C[C@@H]23)n1 (single isomer, unassigned) : < 10 nM
C[C@H]1COC(=O)N1c1cccc(N2c3nc(Nc4ccc([C@@]5(C)CCN(C)C5)cc4)ncc3[C@@]3(C)COC(C)(C)C[C@@H]23)n1 (single isomer, unassigned) : < 10 nM

Shifting focus to the compound that follows.
IC50 reading for CNCc1cccc(N2c3nc(Nc4ccc(N5CCCCC5)cc4)ncc3[C@]3(C)COC(C)(C)C[C@H]23)n1 (single isomer, unassigned) : 10 to 100 nM
